Please provide measured GI50 for the entries that follow.
Tested on: HepG2
procedure-details: Growth inhibition of human HepG2 cells after 48 hrs by SRB assay
Assay type: functional
recorded-conditions: HepG2, 48 h
Numbers only, in µM.

A selection of reference data follows.
Fc1cccc(Oc2ccnc3ccsc23)c1: 42.6
Fc1ccc(Oc2ccnc3ccsc23)cc1: 45.1

Switching to the query record.
Ask: Give reported GI50 value for Cc1c2ccncc2c(C)c2c1[nH]c1ccccc12
Result: 5.38

The measured values listed here are drawn from ChEMBL document CHEMBL2434926.
